- systemUnderTest: CDK2 (Homo sapiens, UniProt P24941)
- protocolSummary: Phage Library Screening with NGS, CDK2
- Format: binding
- Parameters: Full length CDK2 (residues 1-298) with an N-terminal GST-3C-6×his-TEV tag; GST-3C-6×his-TEV (N, cleaved yes); made in house; host or cells: Sf9 (Bac-to-Bac baculovirus)
- statedConditions: CDK2, target concentration 30
Numbered stars: 1 amine (or outer) side, 2 acyl side, 3 side chain; on linkers, the order of the positions; unused ones are H or OH. Bridge positions count the residues as written; N and C are the ends. Ends that are not written are not given here. Phenylene(1,4-NHCOCH2)2 = O=C(C[*:1])Nc1ccc(NC(=O)C[*:2])cc1
valueType: phage screen counts, Target Concentration 30

PCMDAFFSCVW (linker 2-9 via Phenylene(1,4-NHCOCH2)2 (inferred))    0
DPAWWRCSIAAVDCEMQ (linker 7-14 via Phenylene(1,4-NHCOCH2)2 (inferred))    0
DPAWWHCSIAALECHTT (linker 7-14 via Phenylene(1,4-NHCOCH2)2 (inferred))    18
DPAWYACIVAAVDCEHS (linker 7-14 via Phenylene(1,4-NHCOCH2)2 (inferred))    0
CLDAFFACER (linker 1-8 via Phenylene(1,4-NHCOCH2)2 (inferred); not fully specified (C-terminus))    0
DPAWWTCIIAALECEEQ (linker 7-14 via Phenylene(1,4-NHCOCH2)2 (inferred))    0

a. MACVDAFFSC (linker 3-10 via Phenylene(1,4-NHCOCH2)2 (inferred))
b. DPAWWHCVIAALDCETQ (linker 7-14 via Phenylene(1,4-NHCOCH2)2 (inferred))
c. PECLEAFFDCR (linker 3-10 via Phenylene(1,4-NHCOCH2)2 (inferred))
Could you please sort these 3 entries by phage screen counts, Target Concentration 30 from high to low? Respond with an ordered listing of the labels, as requested.
b, c, a
(b: 15, c: 9, a: 0)

###

- systemUnderTest: RNF31 PUB domain (Homo sapiens, UniProt Q96EP0)
- Construct: MBP-TEV (N, cleaved yes); made in house; host or cells: E. coli BL21 (DE3) pLysS
- Sequence (Q96EP0 1-179): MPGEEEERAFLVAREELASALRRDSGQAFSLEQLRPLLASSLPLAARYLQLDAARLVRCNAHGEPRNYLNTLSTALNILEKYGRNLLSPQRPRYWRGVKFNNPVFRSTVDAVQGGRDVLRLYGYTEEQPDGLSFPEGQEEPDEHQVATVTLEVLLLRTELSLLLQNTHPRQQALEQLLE
- protocolSummary: Phage Library Screening with NGS, RNF31 PUB domain
- Type: binding
- statedConditions: clusters C41-C45; BLANK screen, column 4 of 5
valueType: Phage library screen NGS readout, BLANK

DPAHANCQLAADVCSTY    0
DPAYDWCMYAAHECVDQ    1
DPAWWNCLYAANTCVED    1
DPAWWDCMYAASHCDTV    0
DPAYWQCIYAAWDCDQM    1
DPAADQCDIAAFVCSTY    0
DPAEDECQDAAILCSYN    0
DPANFTCRVAADVCSTY    0
DPASEWCLDAAVLCTYS    0
DPAIAQCMLAAQVCSTY    0

P. DPAWTDCDWAALYCDES
Q. DPAWWNCLYAAYECNHA
Consider entries P and Q . Which has the numerically lower Phage library screen NGS readout, BLANK? Give the chosen item's label as your response.
P
(P: 0, Q: 2)

###

- systemUnderTest: MDM2 (Homo sapiens, UniProt Q00987)
- Construct: made in house
- Sequence (Q00987 25-109): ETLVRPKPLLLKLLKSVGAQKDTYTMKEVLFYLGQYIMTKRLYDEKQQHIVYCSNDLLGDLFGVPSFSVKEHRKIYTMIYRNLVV
- protocolSummary: Naive Library Presenter Screening (phage, NGS), MDM2
- Type: binding
- statedConditions: MDM2 clusters (C82, C85); target concentration 100 nM
Numbered stars: 1 amine (or outer) side, 2 acyl side, 3 side chain; on linkers, the order of the positions; unused ones are H or OH. Bridge positions count the residues as written; N and C are the ends. Ends that are not written are not given here. Phenylene(1,4-NHCOCH2)2 = O=C(C[*:1])Nc1ccc(NC(=O)C[*:2])cc1
valueType: interaction data at Target Concentration 100

See these solved cases before continuing.
DPADIVCQDAAFQCFWW (linker 7-14 via Phenylene(1,4-NHCOCH2)2 (inferred))    12
DPAQQDCFLAAWDCVWQ (DPAQQDCFLAAWDCVWQ-NH2; linker 7-14 via Phenylene(1,4-NHCOCH2)2 (inferred))    132
DPARRECMDAAFWCQWV (DPARRECMDAAFWCQWV-NH2; linker 7-14 via Phenylene(1,4-NHCOCH2)2 (inferred))    106

a. DPARQDCFSAAWMCMAI (DPARQDCFSAAWMCMAI-NH2; linker 7-14 via Phenylene(1,4-NHCOCH2)2 (inferred))
b. DPARVHCNQAAFMCHWV (DPARVHCNQAAFMCHWV-NH2; linker 7-14 via Phenylene(1,4-NHCOCH2)2 (inferred))
c. DPAETDCSQAAFWCYWQ (linker 7-14 via Phenylene(1,4-NHCOCH2)2 (inferred))
d. DPAYTQCSDAAFMCWWW (linker 7-14 via Phenylene(1,4-NHCOCH2)2 (inferred))
Could you please sort these 4 entries by interaction data at Target Concentration 100 from high to low? Respond with an ordered listing of the labels, as requested.
c, a, d, b
(c: 170, a: 94, d: 32, b: 9)

###

- systemUnderTest: FBXW7-SKP1 (Homo sapiens)
- Construct: FBXW7 (Uniprot ID: Q969H0, residues 263-706) with an N-terminal GST-TEV tag and C-terminal AVI tag; GST-TEV (N); made in house; host or cells: E. coli BL21 (DE3)
- Sequence (Q969H0 263-706): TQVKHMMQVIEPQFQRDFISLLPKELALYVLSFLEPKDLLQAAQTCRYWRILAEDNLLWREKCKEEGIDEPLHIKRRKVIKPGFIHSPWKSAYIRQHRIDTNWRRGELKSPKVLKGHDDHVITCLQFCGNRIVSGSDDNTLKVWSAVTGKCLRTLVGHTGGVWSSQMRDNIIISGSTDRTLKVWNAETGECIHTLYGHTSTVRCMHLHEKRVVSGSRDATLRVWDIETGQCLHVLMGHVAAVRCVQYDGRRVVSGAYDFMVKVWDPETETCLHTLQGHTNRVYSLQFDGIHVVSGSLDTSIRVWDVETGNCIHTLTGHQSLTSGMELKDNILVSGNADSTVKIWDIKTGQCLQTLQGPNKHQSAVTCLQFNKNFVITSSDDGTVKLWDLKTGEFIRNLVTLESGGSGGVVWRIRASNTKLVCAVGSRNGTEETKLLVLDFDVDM
- Sequence (P63208 whole entry partner, the tested form may be a part): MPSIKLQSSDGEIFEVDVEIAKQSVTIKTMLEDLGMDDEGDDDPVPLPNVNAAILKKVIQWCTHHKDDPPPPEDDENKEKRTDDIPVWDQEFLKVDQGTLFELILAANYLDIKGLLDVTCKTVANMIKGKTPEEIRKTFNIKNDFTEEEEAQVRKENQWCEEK
- protocolSummary: Naive Library Presenter Screening (phage, NGS), FBXW7-SKP1
- Type: binding
- statedConditions: FBXW7 target concentration 10 nM
Numbered stars: 1 amine (or outer) side, 2 acyl side, 3 side chain; on linkers, the order of the positions; unused ones are H or OH. Bridge positions count the residues as written; N and C are the ends. Ends that are not written are not given here. Phenylene(1,4-NHCOCH2)2 = O=C(C[*:1])Nc1ccc(NC(=O)C[*:2])cc1
valueType: interaction data at Target Concentration 10

DPADMMCENAALLCEFW    1
DPAYFSCEDAAELCEWY    0
DPAAFFCDDAAERCEFW    4
DPANIACDDAALLCAFW    0
DPADMYCRDAAELCEFW    1

1. DPANWVCMDAAELCDFY (DPANWVCMDAAELCDFY-NH2; linker 7-14 via Phenylene(1,4-NHCOCH2)2 (inferred))
2. DPAITTCLDAAELCDFW
3. DPADLTCEDAAELCEFW
4. DPANIACDDAALLCEFW
In this exercise, place the 4 sequences in ascending sequence of their recorded interaction data at Target Concentration 10. Respond with an ordered listing of the labels, as requested.
1, 2, 3, 4
(1: 0, 2: 1, 3: 2, 4: 4)

###

Quick list: interaction data at Target Concentration 1000 per entry.
- systemUnderTest: WWP1 (Homo sapiens, UniProt Q9H0M0)
- Construct: GST-TEV (N, cleaved yes); made in house; host or cells: Escherichia coli BL21 (DE3)
- protocolSummary: Naive Library Presenter Screening (phage, NGS), WWP1 (construct not given)
- Type: binding
- statedConditions: WWP1 target concentration 1000 nM, first column
Numbered stars: 1 amine (or outer) side, 2 acyl side, 3 side chain; on linkers, the order of the positions; unused ones are H or OH. Bridge positions count the residues as written; N and C are the ends. Ends that are not written are not given here. Phenylene(1,4-NHCOCH2)2 = O=C(C[*:1])Nc1ccc(NC(=O)C[*:2])cc1
Please give only the number in your answer, with no unit.

DPAFIQCTHAANMCHSS (linker 7-14 via Phenylene(1,4-NHCOCH2)2)    336
DPAIFDCEFAAHVCSVL (linker 7-14 via Phenylene(1,4-NHCOCH2)2)    275
DPAMRRCHQAAWVCEVL (linker 7-14 via Phenylene(1,4-NHCOCH2)2)    183

Now consider the entry below.
Send back WWP1 (Homo sapiens, UniProt Q9H0M0) interaction data at Target Concentration 1000 of DPAQQTCSQAAWVCSIL (linker 7-14 via Phenylene(1,4-NHCOCH2)2; not fully specified (C-terminus)) only.
397

###

- systemUnderTest: RNF31 PUB domain (Homo sapiens)
- Construct: MBP-TEV (N, cleaved yes); made in house; host or cells: E. coli BL21 (DE3) pLysS
- Sequence (Q96EP0 1-179): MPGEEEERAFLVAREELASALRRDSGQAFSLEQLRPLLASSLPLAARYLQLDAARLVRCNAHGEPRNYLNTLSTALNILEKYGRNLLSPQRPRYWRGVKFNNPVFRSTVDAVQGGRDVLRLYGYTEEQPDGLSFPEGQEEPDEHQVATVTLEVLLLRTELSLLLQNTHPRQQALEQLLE
- protocolSummary: Phage Library Screening with NGS, RNF31 PUB domain
- Assay type: binding
- statedConditions: clusters C41-C45; BLANK screen, column 1 of 5
valueType: Phage library screen NGS readout, BLANK

See these solved cases before continuing.
DPAWDYCMYAAYDCNHS    0
DPAQYQCDIAAQVCSTY    0
DPALVTCTWAAIYCDDF    0
DPAIWECVSAAAVCMTY    0

I. DPAYWDCLYAAWSCDIL
II. DPAWWNCLYAADECWSW
Would you let me know which has the greater Phage library screen NGS readout, BLANK value, I or II ? Give the chosen item's label as your response.
I
